The measured values listed here are drawn from patent US9255101B2.

# target.entity: human H4 receptor (Homo sapiens, UniProt Q9H3N8)
# Sequence (Q9H3N8 whole entry): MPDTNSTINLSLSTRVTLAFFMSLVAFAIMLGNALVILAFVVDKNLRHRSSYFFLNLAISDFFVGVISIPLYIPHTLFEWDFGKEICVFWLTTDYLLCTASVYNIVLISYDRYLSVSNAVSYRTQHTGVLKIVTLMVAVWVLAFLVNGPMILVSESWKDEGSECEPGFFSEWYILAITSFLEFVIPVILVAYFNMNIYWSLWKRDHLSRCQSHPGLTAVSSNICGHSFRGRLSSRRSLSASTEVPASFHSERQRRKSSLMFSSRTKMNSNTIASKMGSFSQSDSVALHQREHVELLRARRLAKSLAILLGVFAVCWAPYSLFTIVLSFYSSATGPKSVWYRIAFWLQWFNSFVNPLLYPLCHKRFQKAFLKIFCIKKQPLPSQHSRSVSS
# test.description: biochemical
Counter-ions that a name gives are not always drawn.
measured.property: Ki

- compound: "Cc1c(-c2ccc(SCCN)cc2)nc2n1CCc1ccccc1C2OC1CCN(C)CC1 (stereo not shown) [Example 161, oxalate]"
  reported.result: "< 30 nM"
- compound: "CN1CCC(OC2c3ccccc3CCn3cc(-c4ccc(N)cc4)nc32)CC1 (stereo not shown)"
  reported.result: "< 1000 nM"
- compound: "CN1CCC(OC2c3ccccc3CCn3cc(-c4ccc5c(c4)OCO5)nc32)CC1 (stereo not shown)"
  reported.result: "< 30 nM"
- compound: "CN1CCC(OC2c3ccccc3CCn3cc(-c4ccc(C(C)(F)F)cc4)nc32)CC1 (stereo not shown) [Example 64, oxalate]"
  reported.result: "< 300 nM"
- compound: "CN1CCC(OC2c3ccccc3CCn3cc(-c4cccc(Cl)c4)nc32)CC1 (stereo not shown) [Example 77, oxalate]"
  reported.result: "< 30 nM"

Count: 5. Required value per item: Ki.
1. CN1CCC(OC2c3ccccc3CCn3c2nc(I)c3I)C1 (stereo not shown)
2. CN1CCC(OC2c3ccccc3CCn3cc(CCCCCc4ccccc4)nc32)CC1 (stereo not shown) [Example 90, oxalate]
3. CC(C)Cc1cn2c(n1)C(OC1CCN(C)CC1)c1ccccc1CC2 (stereo not shown) [Example 109, oxalate]
4. CSc1ccc(-c2cn3c(n2)C(OC2CCN(C)CC2)c2ccccc2CC3)cc1 (stereo not shown)
5. CN1CCC(OC2c3ccccc3CCn3c2nc(-c2ccccc2)c3CO)CC1 (stereo not shown)

*A*
1. < 300 nM
2. < 30 nM
3. < 300 nM
4. < 30 nM
5. < 300 nM

###

Please go through the items and note down their IC50.
# target.entity: UniProt Q9H3N8
# test.description: biochemical
Where a name gives a salt, the structure may show the parent alone.

Give measured IC50 for every item shown.
1. CN1CCC(OC2c3ccccc3CCn3cc(CCC(C)(C)C)nc32)CC1 (stereo not shown)
2. COc1ccc(-c2nc3n(c2C)CCc2ccccc2C3OC2CCN(C)CC2)cc1 (stereo not shown)

*A*
["< 30 nM", "< 30 nM"]

Below are some compounds; for each one, tell me its IC50.
1. CC(=O)NCCSc1ccc(-c2nc3n(c2C)CCc2ccccc2C3OC2CCN(C)CC2)cc1 (stereo not shown) [Example 163, oxalate]
2. CN1CCC(OC2c3ccccc3CCn3cc(C=CC4CC4)nc32)CC1 (stereo not shown) [Example 99, oxalate]

*A*
1: < 30 nM; 2: < 300 nM

###

# target.entity: human H4 receptor (Homo sapiens, UniProt Q9H3N8)
# test.description: biochemical
pIC50: −log10 of the molar value. Structures can show the parent of a compound that is named as a salt.
measured.property: pIC50

Some solved cases for reference:
- compound: "Cc1ccc(-c2nc3n(c2C)CCc2ccccc2C3OC2CCN(C)CC2)cc1 (centres unmarked) [Example 153]"
  pIC50: "> 7.52"
- compound: "CCc1ccc(-c2cn3c(n2)C(OC2CCN(C)CC2)c2ccccc2CC3)cc1 (centres unmarked) [Example 21]"
  pIC50: "> 7.52"
- compound: "CCCCCCc1ccc(-c2cn3c(n2)C(OC2CCN(C)CC2)c2ccccc2CC3)cc1 (centres unmarked) [Example 43]"
  pIC50: "> 6.52"
- compound: "CN1CCC(OC2c3ccccc3CCn3cc(-c4ccc(OC(F)(F)F)cc4)nc32)CC1 (centres unmarked) [Example 15, oxalate]"
  pIC50: "> 7.52"

*Q* Give its pIC50 value. Item: CN1CCC(OC2c3ccccc3CCn3c2nc(I)c3I)CC1 (centres unmarked) [Example 219]
*A* > 7.52

###

# target.entity: human H4 receptor (Homo sapiens, UniProt Q9H3N8)
# test.description: biochemical
Where a name gives a salt, the structure may show the parent alone.
measured.property: IC50

- compound: "CN1CCC(OC2c3ccccc3CCn3cc(-c4ccc(C(=O)C(F)(F)F)cc4)nc32)CC1 (centres unmarked) [Example 31, oxalate]"
  IC50: "< 30 nM"
- compound: "CN1CCC(OC2c3ccccc3CCn3cc(-c4ccc5c(c4)OCO5)nc32)CC1 (centres unmarked)"
  IC50: "< 1000 nM"
- compound: "Cc1c(-c2ccc(C=CC(=O)OC(C)(C)C)cc2)nc2n1CCc1ccccc1C2OC1CCN(C)CC1 (centres unmarked)"
  IC50: "< 30 nM"
- compound: "CN1CCC(OC2c3ccccc3CCn3c2nc(-c2ccc(Br)cc2)c3Cl)CC1 (centres unmarked)"
  IC50: "< 30 nM"
- compound: "CN1CCC(OC2c3ccccc3CCn3cc(CCCCCc4ccccc4)nc32)CC1 (centres unmarked) [Example 90, oxalate]"
  IC50: "< 30 nM"
- compound: "CN1CCC(OC2c3ccccc3CCn3cc(C=Cc4ccsc4)nc32)CC1 (centres unmarked)"
  IC50: "< 30 nM"

Lab note: each compound below needs its IC50 filled in.
1. CC(=O)c1ccc(-c2cn3c(n2)C(OC2CCN(C)CC2)c2ccccc2CC3)cc1 (centres unmarked)
2. Cc1c(-c2ccccc2)nc2n1CCc1ccccc1C2OC1CCN(C)CC1 (single isomer, unassigned) [Example 135B]
3. CN1CCC(OC2c3ccccc3CCn3cc(-c4ccc(S(=O)(=O)N(C)C)cc4)nc32)CC1 (centres unmarked)
4. Cc1c(-c2ccc(Br)cc2)nc2n1CCc1ccccc1C2OC1CCN(C)CC1 (centres unmarked)
5. CN1CCC(OC2c3ccccc3CCn3c2nc(-c2ccccc2)c3CO)CC1 (centres unmarked)

*A*
< 300 nM
< 30 nM
< 300 nM
< 30 nM
< 300 nM

###

# target.entity: human H4 receptor (Homo sapiens, UniProt Q9H3N8)
# test.description: biochemical
Counter-ions that a name gives are not always drawn.
Please go through the items and note down their Ki.

Consider the following illustrative entries.
- compound: "Cc1c(-c2ccc(C3=CCCCCC3)cc2)nc2n1CCc1ccccc1C2OC1CCN(C)CC1 (stereo not shown) [Example 171]"
  target.entity: "human H4 receptor (Homo sapiens, UniProt Q9H3N8)"
  Ki: "< 30 nM"
- compound: "CN1CCC(OC2c3ccccc3CCn3cc(-c4cccn4C)nc32)CC1 (stereo not shown) [Example 83]"
  target.entity: "human H4 receptor (Homo sapiens, UniProt Q9H3N8)"
  Ki: "< 1000 nM"

Please state, for each entry, its recorded Ki.
1. CN1CCC(OC2c3ccccc3CCn3cc(-c4cncs4)nc32)CC1 (stereo not shown) [Example 48, oxalate]
2. CN1CCC(OC2c3ccccc3CCn3cc(-c4ccc(CCO)cc4)nc32)CC1 (stereo not shown) [Example 192]
3. COc1cccc2c1CCn1cc(-c3ccccc3)nc1C2OC1CCN(C)CC1 (stereo not shown) [Example 245]

*A*
1: < 1000 nM; 2: < 300 nM; 3: < 1000 nM

Hey, quick one: what's Ki for each of these?
1. CN1CCC(OC2c3ccccc3CCn3cc(SC4CCCC4)nc32)CC1 (stereo not shown) [Example 86, oxalate]
2. COCCC(=O)NCc1ccc(-c2cn3c(n2)C(OC2CCN(C)CC2)c2ccccc2CC3)cc1 (stereo not shown) [Example 138]
3. COC(=O)c1c(-c2ccccc2)nc2n1CCc1ccccc1C2OC1CCN(C)CC1 (stereo not shown) [Example 256]
4. Cc1c(C(O)C(C)C)nc2n1CCc1ccccc1C2OC1CCN(C)CC1 (stereo not shown) [Example 210, oxalate]
5. CN1CCC(OC2c3cccc(Cl)c3CCn3cc(-c4ccccc4)nc32)CC1 (stereo not shown) [Example 91]
6. CN1CCC(OC2c3ccccc3CCn3cc(CCC(C)(C)C)nc32)CC1 (stereo not shown) [Example 94]

*A*
< 300 nM
< 1000 nM
< 300 nM
< 1000 nM
< 300 nM
< 30 nM

Items follow; give Ki for each.
1. CN1CCC(OC2c3ccccc3CCn3cc(-c4ccc(C(=O)OC(C)(C)C)cc4)nc32)CC1 (stereo not shown) [Example 36]
2. CN1CCC(OC2c3cccc(Br)c3CCn3cc(I)nc32)CC1 (stereo not shown) [Example 79]
3. CC(C)SCc1ccc(-c2cn3c(n2)C(OC2CCN(C)CC2)c2ccccc2CC3)cc1 (stereo not shown) [Example 186]
4. Cc1c(-c2ccc(C3=CCN(C(=O)OC(C)(C)C)CC3)cc2)nc2n1CCc1ccccc1C2OC1CCN(C)CC1 (stereo not shown) [Example 168]

*A*
1. < 30 nM
2. < 300 nM
3. < 300 nM
4. < 30 nM

###

Exercise: for every item that follows, state its recorded pKi.
# target.entity: human H4 receptor (Homo sapiens, UniProt Q9H3N8)
# test.description: biochemical
pKi: −log10 of the molar value. Structures can show the parent of a compound that is named as a salt.

- compound: "CN1CCC(OC2c3ccccc3CCn3c2nc(-c2ccccc2)c3C(F)(F)F)CC1 (centres unmarked) [Example 255]"
  target.entity: "human H4 receptor (Homo sapiens, UniProt Q9H3N8)"
  pKi: "> 7.52"
- compound: "Cc1c(-c2ccc(SC(C)(C)C)cc2)nc2n1CCc1ccccc1C2OC1CCN(C)CC1 (centres unmarked) [Example 166, oxalate]"
  target.entity: "human H4 receptor (Homo sapiens, UniProt Q9H3N8)"
  pKi: "> 7.52"
- compound: "Cc1ccc(-c2cn3c(n2)C(OC2CCN(C)CC2)c2ccccc2CC3)c(Cl)c1 (centres unmarked) [Example 75, oxalate]"
  target.entity: "human H4 receptor (Homo sapiens, UniProt Q9H3N8)"
  pKi: "> 6.52"
- compound: "CN1CCC(OC2c3ccccc3CCn3cc(-c4ccc(C(=O)NC5CCC(O)CC5)cc4)nc32)CC1 (centres unmarked) [Example 108]"
  target.entity: "human H4 receptor (Homo sapiens, UniProt Q9H3N8)"
  pKi: "> 6.00"

Let us examine a further case.
*Q* Sample CN1CCC(OC2c3ccccc3CCn3cc(-c4ccc(C(=O)N5CCC(=O)CC5)cc4)nc32)CC1 (centres unmarked) [Example 215] — what was its pKi?
*A* > 6.52
